# target: 5-hydroxytryptamine receptor 2A (Homo sapiens, UniProt P28223)
# testName: Displacement of [3H]-ketanserin from recombinant human 5HT2A receptor expressed in CHOK1 cells measured after 1 hr by microbeta counting method
valueKind: Ki (nM)

Solved entries (count: 3):
INSERT INTO measurements (smilesrepr, valuekind, resultunits, measurednumber) VALUES
  ('COc1ccccc1N1CCN(CCCCCCN2C(=O)c3cccc4cccc(c34)C2=O)CC1', 'Ki', 'nM', 337),
  ('O=[N+]([O-])c1ccccc1N1CCN(CCCCCCN2c3cccc4cccc(c34)S2(=O)=O)CC1', 'Ki', 'nM', 533),
  ('COc1ccccc1N1CCN(CCCCCCn2c(=O)n3c4c(cccc42)CCC3)CC1', 'Ki', 'nM', 456);

[A] COc1cccc(N2CCN(CCCCCCN3C(=O)c4cccc5cccc(c45)C3=O)CC2)c1
[B] COc1ccc(N2CCN(CCCCCCN3C(=O)c4cccc5cccc3c45)CC2)cc1
[C] COc1cccc(N2CCN(CCCCCCN3C(=O)c4cccc5cccc3c45)CC2)c1
[D] O=C1c2cccc3cccc(c23)N1CCCCCCN1CCN(c2cccc3cccnc23)CC1
[E] O=C1c2cccc3cccc(c23)N1CCCCCCN1CCN(c2ncccn2)CC1
List the 5 entries from lowest Ki to highest Ki value. Provide the labels, sequenced as the question asks. E, D, A, C, B

====

# target: D(2) dopamine receptor (Homo sapiens, UniProt P14416)
# Sequence (P14416 whole entry): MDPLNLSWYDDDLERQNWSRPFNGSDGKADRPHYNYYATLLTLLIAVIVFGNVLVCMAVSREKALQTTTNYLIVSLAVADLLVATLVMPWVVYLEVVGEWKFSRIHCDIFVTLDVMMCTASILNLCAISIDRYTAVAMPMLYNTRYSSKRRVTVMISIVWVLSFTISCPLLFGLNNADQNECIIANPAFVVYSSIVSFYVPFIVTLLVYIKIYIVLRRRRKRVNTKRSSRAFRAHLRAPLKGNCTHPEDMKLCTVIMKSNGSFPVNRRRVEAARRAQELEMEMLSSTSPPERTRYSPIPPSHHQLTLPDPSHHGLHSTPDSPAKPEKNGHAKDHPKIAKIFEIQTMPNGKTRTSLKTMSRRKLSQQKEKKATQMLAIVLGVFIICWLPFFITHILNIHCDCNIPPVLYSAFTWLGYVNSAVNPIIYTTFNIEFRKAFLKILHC
# testName: Displacement of [3H]-raclopride from recombinant human D2L receptor expressed in HEK293 cells measured after 1 hr by microbeta counting method
pKi: −log10 of the molar value.
valueKind: pKi

Solved entries (count: 4):
INSERT INTO assay_data (smilesrepr, target, measurednumber) VALUES
  ('O=C1c2cccc3cccc(c23)N1CCCCCCN1CCN(c2cccc3cccnc23)CC1', 'D(2) dopamine receptor (Homo sapiens, UniProt P14416)', 7.09),
  ('COc1ccc(N2CCN(CCCCCCN3C(=O)c4cccc5cccc(c45)C3=O)CC2)cc1', 'D(2) dopamine receptor (Homo sapiens, UniProt P14416)', 4.40),
  ('O=[N+]([O-])c1ccccc1N1CCN(CCCCCCN2c3cccc4cccc(c34)S2(=O)=O)CC1', 'D(2) dopamine receptor (Homo sapiens, UniProt P14416)', 6.58),
  ('O=S1(=O)c2cccc3cccc(c23)N1CCCCCCN1CCN(c2ccccn2)CC1', 'D(2) dopamine receptor (Homo sapiens, UniProt P14416)', 6.93);

[I] O=C1c2cccc3cccc(c23)N1CCCCCCN1CCN(c2ccccc2[N+](=O)[O-])CC1
[II] COc1cccc(N2CCN(CCCCCCN3C(=O)c4cccc5cccc3c45)CC2)c1
Which entry has a larger number for pKi, I or II ? To answer, give the label that identifies your chosen option. II

[a] O=C1c2cccc3cccc(c23)C(=O)N1CCCCCCN1CCN(c2ccccc2[N+](=O)[O-])CC1
[b] O=C1c2cccc3cccc(c23)N1CCCCCCN1CCN(c2ccccn2)CC1
[c] CCOc1ccccc1N1CCN(CCCCCCN2C(=O)c3cccc4cccc2c34)CC1
List the 3 entries from lowest pKi to highest pKi value. Provide the labels, sequenced as the question asks. b, a, c
(b: 6.06, a: 6.85, c: 7.96)

====

# target: D(2) dopamine receptor (Homo sapiens)
# testName: Displacement of [3H]-raclopride from recombinant human D2L receptor expressed in HEK293 cells measured after 1 hr by microbeta counting method
valueKind: Ki (nM)

Solved entries (count: 5):
INSERT INTO assay_data (smilesrepr, resultunits, measurednumber) VALUES
  ('CCOc1ccccc1N1CCN(CCCCCCN2C(=O)c3cccc4cccc(c34)C2=O)CC1', 'nM', 27),
  ('COc1cccc(N2CCN(CCCCCCN3C(=O)c4cccc5cccc(c45)C3=O)CC2)c1', 'nM', 271),
  ('COc1ccccc1N1CCN(CCCCCCN2C(=O)c3cccc4cccc(c34)C2=O)CC1', 'nM', 10),
  ('COc1ccccc1N1CCN(CCCCCCn2c(=O)n3c4c(cccc42)CCC3)CC1', 'nM', 2),
  ('CCOc1ccccc1N1CCN(CCCCCCN2c3cccc4cccc(c34)S2(=O)=O)CC1', 'nM', 30);

[P] O=C1c2cccc3cccc(c23)N1CCCCCCN1CCN(c2ncccn2)CC1
[Q] O=C1c2cccc3cccc(c23)C(=O)N1CCCCCCN1CCN(c2ccccn2)CC1
Which entry has a larger number for Ki, P or Q ? To answer, give the label that identifies your chosen option. Q
(Q: 1300 nM, P: 188 nM)

====

# target: 5-hydroxytryptamine receptor 1A (Homo sapiens)
# testName: Displacement of [3H]-8-OHDPAT from recombinant human 5HT1A receptor expressed in HEK293 cells measured after 1 hr by microbeta counting method
valueKind: Ki (µM)

INSERT INTO assay_data (smilesrepr, valuekind, resultunits, measurednumber) VALUES
  ('CCOc1ccccc1N1CCN(CCCCCCN2C(=O)c3cccc4cccc2c34)CC1', 'Ki', 'µM', 0.022),
  ('COc1ccccc1N1CCN(CCCCCCn2c(=O)n3c4c(cccc42)CCC3)CC1', 'Ki', 'µM', 0.019);

[A] COc1ccccc1N1CCN(CCCCCCN2C(=O)c3cccc4cccc(c34)C2=O)CC1
[B] O=S1(=O)c2cccc3cccc(c23)N1CCCCCCN1CCN(c2ccccn2)CC1
Please indicate which has the smaller reported Ki: A , or B . To answer, give the label that identifies your chosen option. A
(A: 0.02 µM, B: 0.035 µM)

====

# target: 5-hydroxytryptamine receptor 2A (Homo sapiens, UniProt P28223)
# testName: Displacement of [3H]-ketanserin from recombinant human 5HT2A receptor expressed in CHOK1 cells measured after 1 hr by microbeta counting method
pKi: −log10 of the molar value.
valueKind: pKi

[1] O=C1c2cccc3cccc(c23)C(=O)N1CCCCCCN1CCN(c2ccccc2[N+](=O)[O-])CC1
[2] COc1ccc(N2CCN(CCCCCCN3C(=O)c4cccc5cccc(c45)C3=O)CC2)cc1
[3] O=C1c2cccc3cccc(c23)N1CCCCCCN1CCN(c2ccccc2[N+](=O)[O-])CC1
Rank ascending by pKi. Provide the labels, sequenced as the question asks. 2, 3, 1

[I] CCOc1ccccc1N1CCN(CCCCCCN2C(=O)c3cccc4cccc2c34)CC1
[II] CCOc1ccccc1N1CCN(CCCCCCN2C(=O)c3cccc4cccc(c34)C2=O)CC1
Please indicate which has the smaller reported pKi: I , or II . To answer, give the label that identifies your chosen option. I
(I: 6.14, II: 6.34)

====

# target: UniProt:P08908
# Sequence (P08908 whole entry): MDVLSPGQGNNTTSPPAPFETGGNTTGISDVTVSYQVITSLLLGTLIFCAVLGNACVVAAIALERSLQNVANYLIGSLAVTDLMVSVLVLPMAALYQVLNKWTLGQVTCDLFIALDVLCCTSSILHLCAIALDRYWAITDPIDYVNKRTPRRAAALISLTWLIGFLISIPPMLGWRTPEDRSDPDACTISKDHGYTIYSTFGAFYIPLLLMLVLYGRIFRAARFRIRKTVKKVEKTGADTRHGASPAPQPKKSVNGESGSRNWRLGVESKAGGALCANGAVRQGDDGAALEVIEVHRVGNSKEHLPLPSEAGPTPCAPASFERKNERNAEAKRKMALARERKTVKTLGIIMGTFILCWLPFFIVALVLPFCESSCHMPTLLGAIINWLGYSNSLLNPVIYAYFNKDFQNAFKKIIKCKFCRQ
# testName: Displacement of [3H]-8-OHDPAT from recombinant human 5HT1A receptor expressed in HEK293 cells measured after 1 hr by microbeta counting method
pKi: −log10 of the molar value.
valueKind: pKi

Solved entries (count: 5):
INSERT INTO results (smilesrepr, target, measurednumber) VALUES
  ('O=C1c2cccc3cccc(c23)N1CCCCCCN1CCN(c2cccc3cccnc23)CC1', 'UniProt:P08908', 7.66),
  ('COc1ccc(N2CCN(CCCCCCN3C(=O)c4cccc5cccc3c45)CC2)cc1', 'UniProt:P08908', 6.54),
  ('COc1cccc(N2CCN(CCCCCCN3C(=O)c4cccc5cccc3c45)CC2)c1', 'UniProt:P08908', 7.33),
  ('O=C1c2cccc3cccc(c23)C(=O)N1CCCCCCN1CCN(c2ccccn2)CC1', 'UniProt:P08908', 6.76),
  ('O=C1c2cccc3cccc(c23)N1CCCCCCN1CCN(c2ccccn2)CC1', 'UniProt:P08908', 7.49);

[1] COc1cccc(N2CCN(CCCCCCN3C(=O)c4cccc5cccc(c45)C3=O)CC2)c1
[2] O=C1c2cccc3cccc(c23)N1CCCCCCN1CCN(c2ccccc2[N+](=O)[O-])CC1
Please indicate which has the smaller reported pKi: 1 , or 2 . To answer, give the label that identifies your chosen option. 2
(2: 5.02, 1: 7.33)

====

# target: 5-hydroxytryptamine receptor 6 (Homo sapiens, UniProt P50406)
# Sequence (P50406 whole entry): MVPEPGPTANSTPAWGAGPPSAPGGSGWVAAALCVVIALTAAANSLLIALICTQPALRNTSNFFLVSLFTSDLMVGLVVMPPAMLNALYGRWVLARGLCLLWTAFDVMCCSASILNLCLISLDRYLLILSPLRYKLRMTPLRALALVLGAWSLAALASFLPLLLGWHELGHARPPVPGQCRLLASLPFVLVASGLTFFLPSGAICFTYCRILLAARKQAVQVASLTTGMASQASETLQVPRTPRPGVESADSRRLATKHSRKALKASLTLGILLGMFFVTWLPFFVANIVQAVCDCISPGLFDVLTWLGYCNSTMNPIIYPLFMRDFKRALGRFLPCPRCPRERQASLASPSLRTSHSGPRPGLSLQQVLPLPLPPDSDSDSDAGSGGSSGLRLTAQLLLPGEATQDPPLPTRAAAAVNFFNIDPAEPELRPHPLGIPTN
# testName: Displacement of [3H]-LSD from recombinant human 5HT6 receptor expressed in HEK293 cells measured after 1 hr by microbeta counting method
valueKind: Ki (nM)

INSERT INTO results (smilesrepr, target, valuekind, measurednumber) VALUES
  ('O=C1c2cccc3cccc(c23)N1CCCCCCN1CCN(c2ncccn2)CC1', '5-hydroxytryptamine receptor 6 (Homo sapiens, UniProt P50406)', 'Ki', 5250),
  ('O=C1c2cccc3cccc(c23)N1CCCCCCN1CCN(c2cccc3cccnc23)CC1', '5-hydroxytryptamine receptor 6 (Homo sapiens, UniProt P50406)', 'Ki', 999);

[1] COc1ccccc1N1CCN(CCCCCCn2c(=O)n3c4c(cccc42)CCC3)CC1
[2] COc1ccccc1N1CCN(CCCCCCN2C(=O)c3cccc4cccc(c34)C2=O)CC1
[3] COc1ccc(N2CCN(CCCCCCN3C(=O)c4cccc5cccc(c45)C3=O)CC2)cc1
Arrange these compounds by their Ki, starting with the largest number. Provide the labels, sequenced as the question asks. 3, 1, 2
(3: 5760 nM, 1: 3270 nM, 2: 671 nM)
